Tested on: ACHN renal
Assay: NCI tumour cell line growth inhibition, 48 h
assayEndpoint: TGI

Known TGI results, listed for orientation:
>>> testresult("CSc1ccc(Cc2cc(C(C)(C)C)cc(C(C)(C)C)c2O)cc1")
"29 µM"
>>> testresult("O=C(N/C(=C\\c1cccc([N+](=O)[O-])c1)c1nc2c3c(ccc2[nH]1)C(=O)c1ccccc1C3=O)c1ccccc1")
"> 100 µM"
>>> testresult("O=C(O)CN1CCN2CCCCCCCCN(CC1)CCN(CC(=O)O)CC2")
"> 100 µM"
>>> testresult("COc1ccc(C/C=C(\\C)CCO)cc1")
"> 100 µM"
>>> testresult("CCOC(=O)C1=NN(c2ccc(C)cc2)C2(c3ccccc3)C=C(c3ccccc3)N(C)CCN12 (configuration not stated)")
"> 100 µM"
>>> testresult("C[C@@H](c1ccccc1)N1C[C@@H](c2ccc3c(c2)OCO3)[C@@H]2C(=O)CCC[C@@H]21")
"67.2 µM"
>>> testresult("Cc1cc(C)c([I+]c2c(C)cc(C)cc2C)c(C)c1")
"2.47 µM"
>>> testresult("N#Cc1c(N)c(C(=O)c2ccc3c(c2)OCCO3)n2c1CCCC2")
"> 100 µM"
>>> testresult("CCOC(=O)c1ccc(Nc2nc3ccccc3n3cccc23)cc1")
"> 100 µM"
>>> testresult("C/C(=N\\NC(=O)c1ccccc1O)c1c(O)cc(C)oc1=O")
"> 100 µM"

*Q* Tell me the measured TGI of `Oc1ccc(Br)cc1C=NC1CCCCC1` , please.
*A* > 100 µM

*Q* Any idea what its TGI is? The compound is C=CC(=C)CCC(Br)C(C)(C)Br (configuration not stated)
*A* > 100 µM
